System: E. faecalis MMX 486 VRE
Assay: MIC broth microdilution
Type: cell-based
Conditions: Enterococcus faecalis, VRE
measurement.type: MIC (µg/mL)

C=C(NC(=O)c1csc(C2=N[C@@H]3c4csc(n4)[C@H]4NC(=O)c5csc(n5)[C@H]([C@](C)(O)[C@@H](C)O)NC(=O)C5CSC(=N5)/C(=C/C)NC(=O)[C@H]([C@@H](C)O)NC(=O)c5csc(n5)[C@]3(CC2)NC(=O)[C@H](C)NC(=O)C(=C)NC(=O)[C@H](C)NC(=O)[C@H]([C@@H](C)CC)N[C@@H]2C=Cc3c([C@H](C)O)cc(nc3[C@H]2O)C(=O)O[C@@H]4C)n1)C(=O)NC(=CNC(=O)c1ccccc1)C(N)=O [RJS-02] ... 1
C=C(NC(=O)c1csc(C2=N[C@@H]3c4csc(n4)[C@H]4NC(=O)c5csc(n5)[C@H]([C@](C)(O)[C@@H](C)O)NC(=O)C5CSC(=N5)/C(=C/C)NC(=O)[C@H]([C@@H](C)O)NC(=O)c5csc(n5)[C@]3(CC2)NC(=O)[C@H](C)NC(=O)C(=C)NC(=O)[C@H](C)NC(=O)[C@H]([C@@H](C)CC)N[C@@H]2C=Cc3c([C@H](C)O)cc(nc3[C@H]2O)C(=O)O[C@@H]4C)n1)C(=O)NC(=CNC(=O)c1ccc(OC)cc1)C(N)=O [RJS-07] ... 1
C=C(NC(=O)C(=C)NC(=O)c1csc(C2=N[C@@H]3c4csc(n4)[C@H]4NC(=O)c5csc(n5)[C@H]([C@](C)(O)[C@@H](C)O)NC(=O)[C@H]5CSC(=N5)/C(=C/C)NC(=O)[C@H]([C@@H](C)O)NC(=O)c5csc(n5)[C@]3(CC2)NC(=O)[C@H](C)NC(=O)C(=C)NC(=O)[C@H](C)NC(=O)[C@H]([C@@H](C)CC)N[C@@H]2C=Cc3c([C@H](C)O)cc(nc3[C@H]2O)C(=O)O[C@@H]4C)n1)C(N)=O [Thiostrepton] ... 0.12

---

Tested on: E. faecium MMX 708 VSE
Assay: MIC broth microdilution
Type: cell-based
Conditions: Enterococcus faecium, MMX708VSE; E. faecium MMX 708 VSE; CAMHB; read-out: MIC
measurement.type: MIC (µg/mL)

C=C(NC(=O)c1csc(C2=N[C@@H]3c4csc(n4)[C@H]4NC(=O)c5csc(n5)[C@H]([C@](C)(O)[C@@H](C)O)NC(=O)C5CSC(=N5)/C(=C/C)NC(=O)[C@H]([C@@H](C)O)NC(=O)c5csc(n5)[C@]3(CC2)NC(=O)[C@H](C)NC(=O)C(=C)NC(=O)[C@H](C)NC(=O)[C@H]([C@@H](C)CC)N[C@@H]2C=Cc3c([C@H](C)O)cc(nc3[C@H]2O)C(=O)O[C@@H]4C)n1)C(=O)NC(=CNC(=O)C(C)C)C(N)=O ... 1
C=C(NC(=O)c1csc(C2=N[C@@H]3c4csc(n4)[C@H]4NC(=O)c5csc(n5)[C@H]([C@](C)(O)[C@@H](C)O)NC(=O)C5CSC(=N5)/C(=C/C)NC(=O)[C@H]([C@@H](C)O)NC(=O)c5csc(n5)[C@]3(CC2)NC(=O)[C@H](C)NC(=O)C(=C)NC(=O)[C@H](C)NC(=O)[C@H]([C@@H](C)CC)N[C@@H]2C=Cc3c([C@H](C)O)cc(nc3[C@H]2O)C(=O)O[C@@H]4C)n1)C(=O)NC(=CNC(=O)c1ccc(Cl)cc1)C(N)=O ... 0.25
C=C(NC(=O)c1csc(C2=N[C@@H]3c4csc(n4)[C@H]4NC(=O)c5csc(n5)[C@H]([C@](C)(O)[C@@H](C)O)NC(=O)C5CSC(=N5)/C(=C/C)NC(=O)[C@H]([C@@H](C)O)NC(=O)c5csc(n5)[C@]3(CC2)NC(=O)[C@H](C)NC(=O)C(=C)NC(=O)[C@H](C)NC(=O)[C@H]([C@@H](C)CC)N[C@@H]2C=Cc3c([C@H](C)O)cc(nc3[C@H]2O)C(=O)O[C@@H]4C)n1)C(=O)NC(=CNC(=O)c1cccc(/C=N/OC(C)(C)C(=O)O)c1)C(N)=O ... 1
